Origin of measurements: paper PMC7116848

- system: Mgm1 (truncated s-Mgm1) (Thermochaetoides thermophila, UniProt G0SGC7)
- Sequence (G0SGC7 219-912): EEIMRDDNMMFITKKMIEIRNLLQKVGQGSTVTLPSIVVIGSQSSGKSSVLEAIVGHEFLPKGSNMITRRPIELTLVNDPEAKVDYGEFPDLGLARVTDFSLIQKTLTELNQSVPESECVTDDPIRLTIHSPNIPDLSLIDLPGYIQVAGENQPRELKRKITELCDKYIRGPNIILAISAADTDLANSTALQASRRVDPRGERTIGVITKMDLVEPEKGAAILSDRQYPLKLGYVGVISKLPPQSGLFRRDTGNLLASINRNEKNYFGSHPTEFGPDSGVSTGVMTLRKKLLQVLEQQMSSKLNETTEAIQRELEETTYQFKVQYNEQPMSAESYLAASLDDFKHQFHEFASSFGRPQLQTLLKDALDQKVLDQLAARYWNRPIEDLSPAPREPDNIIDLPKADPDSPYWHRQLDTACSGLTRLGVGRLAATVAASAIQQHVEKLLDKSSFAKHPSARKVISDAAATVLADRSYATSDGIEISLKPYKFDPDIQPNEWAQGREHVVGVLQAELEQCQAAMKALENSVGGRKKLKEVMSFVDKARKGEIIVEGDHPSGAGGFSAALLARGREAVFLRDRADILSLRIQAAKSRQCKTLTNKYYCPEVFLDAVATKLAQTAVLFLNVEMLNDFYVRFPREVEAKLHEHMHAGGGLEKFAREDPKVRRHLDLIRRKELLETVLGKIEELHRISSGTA
- experiment-description: isothermal titration calorimetry
attribute-measured: pKd
Notebook: values listed as pKd are -log10 of the concentration (mol/L).

Param readout = pKd; param system = Mgm1 (truncated s-Mgm1) (Thermochaetoides thermophila, UniProt G0SGC7); param query = Nc1nc2c(ncn2[C@@H]2O[C@H](COP(=O)(O)OP(=O)(O)OP(O)(O)=S)[C@@H](O)[C@H]2O)c(=O)[nH]1 [GTPγS] ; response: value
5.05
